The reported measurements were obtained from patent US9839642B2.

- System: Klebsiella pneumoniae expressing VIM-1 (IHMA599644)
- assay summary: Antibiotic potentiation activity: synergistic concentration (MITC95) with imipenem, growth by OD600
- Format: cell-based
- condition details: 95% inhibition of bacterial growth, strain IHMA599644
property measured: VIM1 KP599644 MITC95 (µM)
Answers are plain numbers, in µM.

Reference set (3 entries):
compound="O=C(O)[C@@H](C1CCCC1)[C@H](Cc1ccc(C2CCNC2)cc1)c1nnn[nH]1 (some centres unmarked) [Example 79]" reported=6.2
compound="CCC[C@H](C(=O)O)[C@H](Cc1ccc(-c2ccc(C3(O)CNC3)cc2)nc1)c1nnn[nH]1 [Example 159]" reported=50
compound="CCC[C@H](C(=O)O)[C@H](Cc1ccc(-c2cnc(N3CCCC3)s2)cc1)c1nn[nH]n1 [Example 196]" reported=125

Here are 3 compounds. What values of VIM1 KP599644 MITC95 were reported for them?
1. CCC[C@H](C(=O)O)[C@H](Cc1cnc(N)s1)c1nnn[nH]1 [Example 115]
2. CCC[C@H](C(=O)O)[C@H](Cc1ccccn1)c1nn[nH]n1 [Example 154]
3. CC(C)C[C@H](C(=O)O)[C@H](Cc1ccccc1)c1nnn[nH]1 [Example 7]

Response line:
1. 9.4
2. 25
3. 37.5

* * *

- system tested: VIM-1 (Pseudomonas aeruginosa)
- assay summary: Enzyme activity: determination of IC50, fluorescence assay with CCF2-FA substrate
- Type: biochemical
- condition details: enzyme 30 pM, CCF2-FA 1.25 μM, 2 hours at 25° C.; read-out: VIM1 IC50
For each entry below, report its IC50 value.
One number for each entry, in nM.

compound=CCC[C@H](C(=O)O)[C@H](Cc1ccc(NCCN2CCN(C(C)C)CC2)cc1)c1nn[nH]n1 system_tested="VIM-1 (Pseudomonas aeruginosa)" property_measured=IC50 reported=93
compound=CCC[C@H](C(=O)O)[C@H](Cc1ccc(C#N)cc1)c1nn[nH]n1 system_tested="VIM-1 (Pseudomonas aeruginosa)" property_measured=IC50 reported=4.3
compound=CC(C)[C@H](C(=O)O)[C@H](Cc1ccc(C2=CCNC2)nc1)c1nnn[nH]1 system_tested="VIM-1 (Pseudomonas aeruginosa)" property_measured=IC50 reported=8.4
compound=Cc1cc(C[C@H](c2nnn[nH]2)[C@@H](C(=O)O)C(C)C)ccc1C1=CCNC1 system_tested="VIM-1 (Pseudomonas aeruginosa)" property_measured=IC50 reported=0.79
compound=CCC[C@H](C(=O)O)[C@H](Cc1ccc(-c2ccc3c(c2)CNCC3)cc1)c1nnn[nH]1 system_tested="VIM-1 (Pseudomonas aeruginosa)" property_measured=IC50 reported=4.4
compound=CC(C)C[C@H](C(=O)O)[C@H](Cc1ccc(-c2ccc(N)nc2)nc1)c1nn[nH]n1 system_tested="VIM-1 (Pseudomonas aeruginosa)" property_measured=IC50 reported=5.7
compound=CC(C)[C@H](C(=O)O)[C@H](Cc1ccc(N[C@@H]2CCNC2)nc1)c1nnn[nH]1 system_tested="VIM-1 (Pseudomonas aeruginosa)" property_measured=IC50 reported=59
compound=CCC[C@H](C(=O)O)[C@H](Cc1ccc(-c2ccc(C(C)(C)O)nc2)cc1)c1nn[nH]n1 system_tested="VIM-1 (Pseudomonas aeruginosa)" property_measured=IC50 reported=17

Batch: IC50 for all items listed.
1. CCC[C@H](C(=O)O)[C@H](Cc1ccc(Cl)nc1)c1nnn[nH]1
2. CC(C)[C@H](C(=O)O)[C@H](Cc1ccc(N)cn1)c1nnn[nH]1
3. CCC[C@H](C(=O)O)[C@H](Cc1ccccc1C#N)c1nnn[nH]1

Response line:
5.7
240
3.2
